src = patent US11173151B2

system-name: human V2 receptor (Homo sapiens)
Construct: expressed in transfected cells; host or cells: CHO K1 (ATCC) expressing firefly luciferase under a CRE-responsive promoter
Sequence (P30518 whole entry): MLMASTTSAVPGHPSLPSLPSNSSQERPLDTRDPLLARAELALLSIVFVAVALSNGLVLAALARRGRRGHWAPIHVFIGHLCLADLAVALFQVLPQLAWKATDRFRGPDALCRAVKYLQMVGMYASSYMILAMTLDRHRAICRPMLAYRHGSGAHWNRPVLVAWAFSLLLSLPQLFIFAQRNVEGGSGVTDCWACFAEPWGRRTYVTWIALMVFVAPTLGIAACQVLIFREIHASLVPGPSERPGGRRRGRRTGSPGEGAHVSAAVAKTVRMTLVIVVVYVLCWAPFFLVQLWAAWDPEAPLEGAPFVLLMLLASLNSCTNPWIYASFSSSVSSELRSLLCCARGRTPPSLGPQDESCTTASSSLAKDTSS
experiment-notes: Cellular in vitro assay for determining vasopressin receptor activity, V2 receptor cell line (CHO, CRE-luciferase)
Assay type: cell-based
test-context: CHO cell line transfected with human V2 receptor; [Arg8]-vasopressin at EC50 concentration; read-out: IC50 hV2
pIC50: −log10 of the molar value.
metric: pIC50

Solved entries (count: 5):
[[record]]
compound = "O=C(N[C@H]1C[C@H]1F)c1cccnc1-n1nc(Cn2nc(-c3ccc(Cl)cc3)n(C[C@H](O)C(F)(F)F)c2=O)nc1C(=O)N1CCS(=O)(=O)CC1 (racemic)"
observed_value = 5.50

[[record]]
compound = "O=C(N[C@H]1C[C@H]1F)c1cccnc1-n1cnc(Cn2nc(-c3ccc(Cl)cc3)n(C[C@H](O)C(F)(F)F)c2=O)n1 (racemic)"
observed_value = 6.81

[[record]]
compound = "O=C(c1cccc(Cl)c1-n1cnc(Cn2nc(-c3ccc(Cl)cc3)n(C[C@@H](O)C(F)(F)F)c2=O)n1)N1CCC[C@@H]1C(F)(F)F"
observed_value = 4.94

[[record]]
compound = "CC1(NC(=O)c2cccnc2-n2cnc(Cn3nc(-c4ccc(Cl)cc4)n(C[C@H](O)C(F)(F)F)c3=O)n2)CC1"
observed_value = 7.26

[[record]]
compound = "O=C(NCCC(F)(F)F)c1cccc(Cl)c1-n1cnc(Cn2nc(-c3ccc(Cl)cc3)n(C[C@@H](O)C(F)(F)F)c2=O)n1"
observed_value = 5.48


1: O=C1CN(C(=O)c2nc(Cn3nc(-c4ccc(Cl)cc4)n(C[C@H](O)C(F)(F)F)c3=O)nn2-c2ncccc2C(=O)N[C@H]2C[C@H]2F)CCN1 (racemic)
2: O=C(NC1CC1)c1cccnc1-n1cnc(Cn2nc(-c3ccc(Cl)cc3)n(C[C@H](O)C(F)(F)F)c2=O)n1
3: CNC(=O)c1cc(F)ccc1-n1cnc(Cn2nc(-c3ccc(Cl)cc3)n(C[C@H](O)C(F)(F)F)c2=O)n1
4: CC1(C)COCCN1C(=O)c1ncccc1-n1cnc(Cn2nc(-c3ccc(Cl)cc3)n(C[C@@H](O)C(F)(F)F)c2=O)n1
5: O=C1CN(c2nc(Cn3nc(-c4ccc(Cl)cc4)n(C[C@H](O)C(F)(F)F)c3=O)nn2-c2cccnc2C(=O)NCC(F)(F)F)CCN1
Arrange the 5 compounds from largest to smallest pIC50. Thanks in advance for listing the labels in the requested order.
3, 2, 1, 5, 4

====

system-name: human V1a receptor (Homo sapiens, UniProt P37288)
Construct: expressed in transfected cells; host or cells: CHO K1 (ATCC), also stably transfected with a modified aequorin
Sequence (P37288 whole entry): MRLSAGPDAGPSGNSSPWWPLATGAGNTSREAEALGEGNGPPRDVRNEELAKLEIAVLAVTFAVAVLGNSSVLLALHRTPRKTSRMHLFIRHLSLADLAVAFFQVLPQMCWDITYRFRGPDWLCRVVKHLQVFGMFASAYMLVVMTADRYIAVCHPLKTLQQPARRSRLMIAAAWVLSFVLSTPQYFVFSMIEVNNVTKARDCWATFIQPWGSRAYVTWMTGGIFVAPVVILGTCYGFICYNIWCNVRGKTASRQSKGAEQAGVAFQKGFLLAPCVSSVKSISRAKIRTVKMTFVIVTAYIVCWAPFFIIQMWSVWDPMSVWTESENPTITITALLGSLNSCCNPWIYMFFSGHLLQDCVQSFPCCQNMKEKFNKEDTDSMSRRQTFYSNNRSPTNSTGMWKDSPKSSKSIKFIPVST
experiment-notes: Cellular in vitro assay for determining vasopressin receptor activity, V1a receptor cell line (CHO, aequorin luminescence)
Assay type: cell-based
test-context: selectivity ratio IC50 hV2 / IC50 hV1a
metric: ratio IC50 hV2/hV1a

Sample answers from the record:
[[record]]
compound = "CN(CC1CC1)C(=O)c1ncccc1-n1cnc(Cn2nc(-c3ccc(Cl)cc3)n(C[C@H](O)C(F)(F)F)c2=O)n1"
observed_value = 337.5

[[record]]
compound = "O=C(Nc1ncccc1-n1cnc(Cn2nc(-c3ccc(Cl)cc3)n(C[C@H](O)C(F)(F)F)c2=O)n1)c1ccncc1"
observed_value = 859.2


a: O=C(NCc1ccncc1)c1ccccc1-n1cnc(Cn2nc(-c3ccc(Cl)cc3)n(C[C@H](O)C(F)(F)F)c2=O)n1
b: O=C(NC1CCOC1=O)c1ccccc1-n1cnc(Cn2nc(-c3ccc(Cl)cc3)n(C[C@H](O)C(F)(F)F)c2=O)n1 (mixture of isomers)
c: O=C(N[C@H]1C[C@H]1F)c1cccnc1-n1cnc(Cn2nc(-c3ccc(Cl)cc3)n(C[C@H](O)C(F)(F)F)c2=O)n1 (racemic)
d: CN1CC(C(=O)Nc2ncccc2-n2cnc(Cn3nc(-c4ccc(Cl)cc4)n(C[C@H](O)C(F)(F)F)c3=O)n2)CC1=O (stereo partly drawn)
Order the records, beginning with the lowest ratio IC50 hV2/hV1a and ending with the highest. Ranked list of labels, please, in the requested order.
d, c, b, a

====

system-name: human V2 receptor (Homo sapiens)
Construct: expressed in transfected cells; host or cells: CHO K1 (ATCC) expressing firefly luciferase under a CRE-responsive promoter
experiment-notes: Cellular in vitro assay for determining vasopressin receptor activity, V2 receptor cell line (CHO, CRE-luciferase)
Format: cell-based
test-context: CHO cell line transfected with human V2 receptor; [Arg8]-vasopressin at EC50 concentration, 3 hours; read-out: IC50 hV2
metric: IC50 (nM)

Some solved cases for reference:
[[record]]
molecule = "Cc1cc(NC(=O)c2ccccc2-n2cnc(Cn3nc(-c4ccc(Cl)cc4)n(C[C@H](O)C(F)(F)F)c3=O)n2)cnc1F"
system_name = "human V2 receptor (Homo sapiens)"
observed_value = 87

[[record]]
molecule = "O=C(c1ccccc1-n1cnc(Cn2nc(-c3ccc(Cl)cc3)n(C[C@H](O)C(F)(F)F)c2=O)n1)N1CC(O)C1"
system_name = "human V2 receptor (Homo sapiens)"
observed_value = 845

[[record]]
molecule = "CC(=O)Nc1ncccc1-n1cnc(Cn2nc(-c3ccc(Cl)cc3)n(C[C@H](O)C(F)(F)F)c2=O)n1"
system_name = "human V2 receptor (Homo sapiens)"
observed_value = 710

[[record]]
molecule = "Cn1nccc1C(=O)Nc1ncccc1-n1cnc(Cn2nc(-c3ccc(Cl)cc3)n(C[C@H](O)C(F)(F)F)c2=O)n1"
system_name = "human V2 receptor (Homo sapiens)"
observed_value = 1200

[[record]]
molecule = "O=C(Nc1cccc(O)c1)c1ccccc1-n1cnc(Cn2nc(-c3ccc(Cl)cc3)n(C[C@H](O)C(F)(F)F)c2=O)n1"
system_name = "human V2 receptor (Homo sapiens)"
observed_value = 67.5


I: O=C(Cn1cncn1)Nc1ncccc1-n1cnc(Cn2nc(-c3ccc(Cl)cc3)n(C[C@H](O)C(F)(F)F)c2=O)n1
II: CC(C)(N)CNC(=O)c1cc(Cl)ccc1-n1cnc(Cn2nc(-c3ccc(Cl)cc3)n(C[C@H](O)C(F)(F)F)c2=O)n1
When I and II are compared, which has the higher number for IC50? Identify your selection by its label.
I

A: O=C(Nc1ccncc1-n1cnc(Cn2nc(-c3ccc(Cl)cc3)n(C[C@H](O)C(F)(F)F)c2=O)n1)C1CC(F)(F)C1
B: O=C(NC1CCOC1=O)c1ccccc1-n1cnc(Cn2nc(-c3ccc(Cl)cc3)n(C[C@H](O)C(F)(F)F)c2=O)n1 (mixture of isomers)
# min-compare on IC50 between A and B // respond with label for picked entry
B
(B: 775 nM, A: 1670 nM)

====

system-name: human V1a receptor (Homo sapiens, UniProt P37288)
Construct: expressed in transfected cells; host or cells: CHO K1 (ATCC), also stably transfected with a modified aequorin
experiment-notes: Cellular in vitro assay for determining vasopressin receptor activity, V1a receptor cell line (CHO, aequorin luminescence)
Assay type: cell-based
test-context: selectivity ratio IC50 hV2 / IC50 hV1a
metric: ratio IC50 hV2/hV1a

Below, each entry is followed by its recorded ratio IC50 hV2/hV1a result.
[[record]]
compound = "CNC(=O)c1cccnc1-n1cnc(Cn2nc(-c3ccc(Cl)cc3)n(C[C@H](O)C(F)(F)F)c2=O)n1"
observed_value = 26.0

[[record]]
compound = "Cc1nc(C(=O)Nc2ncccc2-n2cnc(Cn3nc(-c4ccc(Cl)cc4)n(C[C@H](O)C(F)(F)F)c3=O)n2)no1"
observed_value = 22.2

[[record]]
compound = "C[C@H](NC(=O)c1ccccc1-n1cnc(Cn2nc(-c3ccc(Cl)cc3)n(C[C@H](O)C(F)(F)F)c2=O)n1)C(N)=O"
observed_value = 28.7

[[record]]
compound = "C=CCC(=O)Nc1ncccc1-n1cnc(Cn2nc(-c3ccc(Cl)cc3)n(C[C@H](O)C(F)(F)F)c2=O)n1"
observed_value = 20.8


I: CCC(C)(O)C(=O)Nc1ncccc1-n1cnc(Cn2nc(-c3ccc(Cl)cc3)n(C[C@H](O)C(F)(F)F)c2=O)n1 (stereo partly shown)
II: CCc1cc(C(=O)Nc2ncccc2-n2cnc(Cn3nc(-c4ccc(Cl)cc4)n(C[C@H](O)C(F)(F)F)c3=O)n2)on1
III: NC(CNC(=O)c1ncccc1-n1cnc(Cn2nc(-c3ccc(Cl)cc3)n(C[C@@H](O)C(F)(F)F)c2=O)n1)C(F)(F)F (mixture of isomers)
Kindly order the items shown according to ratio IC50 hV2/hV1a, from the highest value down. Please list each label once, in the requested order.
III, II, I
(III: 44.8, II: 30.0, I: 15.7)

====

system-name: human V1a receptor (Homo sapiens, UniProt P37288)
Construct: expressed in transfected cells; host or cells: CHO K1 (ATCC), also stably transfected with a modified aequorin
experiment-notes: Cellular in vitro assay for determining vasopressin receptor activity, V1a receptor cell line (CHO, aequorin luminescence)
Format: cell-based
test-context: selectivity ratio IC50 hV2 / IC50 hV1a
metric: ratio IC50 hV2/hV1a

Sample records with ratio IC50 hV2/hV1a:
[[record]]
molecule = "O=C(N[C@H]1C[C@H]1F)c1ncccc1-n1cnc(Cn2nc(-c3ccc(Cl)cc3)n(C[C@H](O)C(F)(F)F)c2=O)n1 (racemic) [Example 456]"
metric = "ratio IC50 hV2/hV1a"
observed_value = 65.4

[[record]]
molecule = "CC(C)(C)OC(=O)CNc1ccncc1-n1cnc(Cn2nc(-c3ccc(Cl)cc3)n(C[C@H](O)C(F)(F)F)c2=O)n1 [Example 16]"
metric = "ratio IC50 hV2/hV1a"
observed_value = 19.5

[[record]]
molecule = "O=C(CC1CC1)Nc1ccncc1-n1cnc(Cn2nc(-c3ccc(Cl)cc3)n(C[C@H](O)C(F)(F)F)c2=O)n1 [Example 30]"
metric = "ratio IC50 hV2/hV1a"
observed_value = 61.0

[[record]]
molecule = "CC1CCCN1C(=O)c1ccccc1-n1cnc(Cn2nc(-c3ccc(Cl)cc3)n(C[C@H](O)C(F)(F)F)c2=O)n1 (mixture of isomers) [Example 355]"
metric = "ratio IC50 hV2/hV1a"
observed_value = 362.9

[[record]]
molecule = "O=C1CN(C(=O)c2ccccc2-n2cnc(Cn3nc(-c4ccc(Cl)cc4)n(C[C@H](O)C(F)(F)F)c3=O)n2)CN1 [Example 279]"
metric = "ratio IC50 hV2/hV1a"
observed_value = 98.2

[[record]]
molecule = "O=C(NC1CC1)c1cccnc1-n1cnc(Cn2nc(-c3ccc(Cl)cc3)n(C[C@H](O)C(F)(F)F)c2=O)n1 [Example 496]"
metric = "ratio IC50 hV2/hV1a"
observed_value = 23.6

[[record]]
molecule = "O=C(NCC(F)(F)F)c1cccc(Cl)c1-n1cnc(Cn2nc(-c3ccc(Cl)cc3)n(C[C@H](O)C(F)(F)F)c2=O)n1 [Example 365]"
metric = "ratio IC50 hV2/hV1a"
observed_value = 30.7

[[record]]
molecule = "O=C(NC1CC(F)(F)C1)c1cccnc1-n1cnc(Cn2nc(-c3ccc(Cl)cc3)n(C[C@H](O)C(F)(F)F)c2=O)n1 [Example 498]"
metric = "ratio IC50 hV2/hV1a"
observed_value = 44.8


P: CCCNC(=O)c1ccccc1-n1cnc(Cn2nc(-c3ccc(Cl)cc3)n(C[C@H](O)C(F)(F)F)c2=O)n1 [Example 320]
Q: NC(=O)[C@H]1CC(F)(F)CN1c1ccncc1-n1cnc(Cn2nc(-c3ccc(Cl)cc3)n(C[C@H](O)C(F)(F)F)c2=O)n1 [Example 24]
Parameter metric = ratio IC50 hV2/hV1a. Return the lower-valued option from P and Q . Return value: the label identifying the chosen record.
Q

a: O=C(Nc1ccncc1-n1cnc(Cn2nc(-c3ccc(Cl)cc3)n(C[C@H](O)C(F)(F)F)c2=O)n1)C1CC(F)(F)C1 [Example 31]
b: O=C(NCC(F)(F)F)c1cc(F)ccc1-n1cnc(Cn2nc(-c3ccc(Cl)cc3)n(C[C@H](O)C(F)(F)F)c2=O)n1 [Example 426]
c: CC(=O)N[C@H]1CCN(C(=O)c2ccccc2-n2cnc(Cn3nc(-c4ccc(Cl)cc4)n(C[C@H](O)C(F)(F)F)c3=O)n2)C1 [Example 180]
d: CC1SCCN1C(=O)c1ccccc1-n1cnc(Cn2nc(-c3ccc(Cl)cc3)n(C[C@H](O)C(F)(F)F)c2=O)n1 (mixture of isomers) [Example 270]
Sort the molecules on ratio IC50 hV2/hV1a; start with the lowest figure. Sort the labels as requested; that list is your answer.
b, c, a, d
(b: 6.6, c: 43.4, a: 90.8, d: 685.7)

1: O=C(Nc1ncccc1-n1cnc(Cn2nc(-c3ccc(Cl)cc3)n(C[C@H](O)C(F)(F)F)c2=O)n1)c1cnccn1 [Example 104]
2: O=C(c1cccc(Cl)c1-n1cnc(Cn2nc(-c3ccc(Cl)cc3)n(C[C@H](O)C(F)(F)F)c2=O)n1)N1CCC[C@H]1C(F)(F)F [Example 383]
3: O=C(c1ncccc1-n1cnc(Cn2nc(-c3ccc(Cl)cc3)n(C[C@H](O)C(F)(F)F)c2=O)n1)N1CCOCC1 [Example 446]
4: CNC(=O)c1ccccc1-n1cnc(Cn2nc(-c3ccc(Cl)cc3)n(C[C@H](O)C(F)(F)F)c2=O)n1 [Example 169]
Put these in order: smallest ratio IC50 hV2/hV1a first, largest last. // respond by listing labels in the order requested
2, 4, 1, 3

A: NC(=O)[C@@H]1CCCN1C(=O)c1ccccc1-n1cnc(Cn2nc(-c3ccc(Cl)cc3)n(C[C@H](O)C(F)(F)F)c2=O)n1 [Example 195]
B: CC(C)(N)CNC(=O)c1cc(F)ccc1-n1cnc(Cn2nc(-c3ccc(Cl)cc3)n(C[C@H](O)C(F)(F)F)c2=O)n1 [Example 424]
Select one. Lower ratio IC50 hV2/hV1a: A or B When you have decided, please share the label of that item.
A

I: O=C(Nc1nncs1)c1ccccc1-n1cnc(Cn2nc(-c3ccc(Cl)cc3)n(C[C@H](O)C(F)(F)F)c2=O)n1 [Example 251]
II: NC(=O)[C@@H]1CC(F)(F)CN1C(=O)c1ncccc1-n1cnc(Cn2nc(-c3ccc(Cl)cc3)n(C[C@@H](O)C(F)(F)F)c2=O)n1 [Example 461]
III: CC1CN(C(=O)c2cccc(Cl)c2-n2cnc(Cn3nc(-c4ccc(Cl)cc4)n(C[C@H](O)C(F)(F)F)c3=O)n2)CCO1 (mixture of isomers) [Example 377]
IV: O=C(NCc1cccs1)c1ccccc1-n1cnc(Cn2nc(-c3ccc(Cl)cc3)n(C[C@H](O)C(F)(F)F)c2=O)n1 [Example 253]
V: NC(=O)CNc1ccncc1-n1cnc(Cn2nc(-c3ccc(Cl)cc3)n(C[C@H](O)C(F)(F)F)c2=O)n1 [Example 17]
Your job: order these 5 records by ratio IC50 hV2/hV1a, ascending. Your reply should list the labels following the order given in the request.
V, I, II, III, IV
(V: 1.3, I: 9.2, II: 20.0, III: 29.2, IV: 64.0)
